Test system: Saccharomyces cerevisiae;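 note: PSI is a weighted mean of sequencing reads over stability bins, variants kept only with over 10 reads, mCherry proximal and sfGFP distal, peptide attached via GGGS linker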
Assay: protein stability index of tFT-peptide fusion (C-terminal peptide) (PSI (0-1 scale)); higher = more stable (slower turnover)
Conditions: genetic background: wild type; temperature: 37 C
Overview of reported protein stability index across a group of sequences:
property_name: protein stability index

> print(dat)
        residues             target.entity            property.name  result.number
 1  SFVVVFTFFFGC  Saccharomyces cerevisiae  protein stability index          0.377
 2  FGSFVVWGVWWG  Saccharomyces cerevisiae  protein stability index          0.507
 3  LPPPTPRSVLLN  Saccharomyces cerevisiae  protein stability index          0.555
 4  PFFFSFILVLFW  Saccharomyces cerevisiae  protein stability index          0.244
 5  VSSSFSVLVLLF  Saccharomyces cerevisiae  protein stability index           0.52
 6  MALAVRVVSCGA  Saccharomyces cerevisiae  protein stability index           0.38
 7  APASFRVLISAF  Saccharomyces cerevisiae  protein stability index         0.0646
 8  RQINEKKKLYMI  Saccharomyces cerevisiae  protein stability index          0.182
 9  GINYSNKKILVN  Saccharomyces cerevisiae  protein stability index           0.57
10  ISPCLVRLWYRI  Saccharomyces cerevisiae  protein stability index          0.168
11  DLPKAYCIEMIG  Saccharomyces cerevisiae  protein stability index          0.432
12  CGLGKVLGWRWV  Saccharomyces cerevisiae  protein stability index          0.519
13  PPGLLPPCLLVV  Saccharomyces cerevisiae  protein stability index          0.395
14  PVLSLPPLSSPP  Saccharomyces cerevisiae  protein stability index          0.704
15  GSRVICMVVATM  Saccharomyces cerevisiae  protein stability index          0.582
16  ILVLKFLRLLSA  Saccharomyces cerevisiae  protein stability index          0.526
17  FPTLHPAIPYLC  Saccharomyces cerevisiae  protein stability index          0.468
18  MWRWASKCRFSM  Saccharomyces cerevisiae  protein stability index          0.515
19  MALAVRVVPCGA  Saccharomyces cerevisiae  protein stability index          0.421
